Test system: Avena fatua (AVEFA)
Assay: Pre-emergence herbicidal activity, glasshouse pot test
Type: in vivo
Settings: 1000 g/ha, pre-emergence spray, evaluated after 13 days, damage score 0-5
Consider the following compounds and their measured Control of weed species after pre-emergence application, AVEFA readings.
Just the number.

Examples with their reported Control of weed species after pre-emergence application, AVEFA follow.
structureNotation	targetDesc	experimentalResult
COCC(=O)Nc1cnc(-c2cncc(F)c2)nc1C(F)(F)F	Avena fatua (AVEFA)	2
CCCCC(=O)Nc1cnc(-c2cncc(F)c2)nc1C(F)(F)F	Avena fatua (AVEFA)	2
CC(C)=CC(=O)Nc1cnc(-c2cncc(F)c2)nc1C(F)(F)F	Avena fatua (AVEFA)	1
CC(=O)Nc1cnc(-c2cncc(F)c2)nc1C(F)(F)F	Avena fatua (AVEFA)	2
CCC(=O)Nc1cnc(-c2cncc(F)c2)nc1C(F)(F)F	Avena fatua (AVEFA)	3

Please give the measured Control of weed species after pre-emergence application, AVEFA for this compound: O=C(Nc1cnc(-c2cncc(F)c2)nc1C(F)(F)F)C(Cl)Cl 1

Please give the measured Control of weed species after pre-emergence application, AVEFA for this compound: O=C(Nc1cnc(-c2cncc(F)c2)nc1C(F)(F)F)C1CC1 2

Please give the measured Control of weed species after pre-emergence application, AVEFA for this compound: O=C1CCCN1c1cnc(-c2cncc(F)c2)nc1C(F)(F)F 0

Please give the measured Control of weed species after pre-emergence application, AVEFA for this compound: CC(C)(C)C(=O)Nc1cnc(-c2cncc(F)c2)nc1C(F)(F)F 2

Please give the measured Control of weed species after pre-emergence application, AVEFA for this compound: O=C1CCCCN1c1cnc(-c2cncc(F)c2)nc1C(F)(F)F 0

Please give the measured Control of weed species after pre-emergence application, AVEFA for this compound: N#CCN(C(=O)C1CC1)c1cnc(-c2cncc(F)c2)nc1C(F)(F)F 2

Please give the measured Control of weed species after pre-emergence application, AVEFA for this compound: O=C(Nc1cnc(-c2cncc(F)c2)nc1C(F)(F)F)C1CCC1 1

Please give the measured Control of weed species after pre-emergence application, AVEFA for this compound: O=C(CC(F)(F)F)Nc1cnc(-c2cncc(F)c2)nc1C(F)(F)F 0

---

Test system: Echinochloa crus-galli (ECHCG)
Assay: Pre-emergence herbicidal activity, glasshouse pot test
Assay type: in vivo
Conditions: 1000 g/ha, pre-emergence spray, evaluated after 13 days, damage score 0-5
testReadout: Control of weed species after pre-emergence application, ECHCG
Just the number.

structureNotation	targetDesc	experimentalResult
CCCC(=O)Nc1cnc(-c2cncc(F)c2)nc1C(F)(F)F	Echinochloa crus-galli (ECHCG)	4
O=C1CCCN1c1cnc(-c2cncc(F)c2)nc1C(F)(F)F	Echinochloa crus-galli (ECHCG)	3
CC(C)C(=O)N(C)c1cnc(-c2cncc(F)c2)nc1C(F)(F)F	Echinochloa crus-galli (ECHCG)	4
Cc1ccc(C(=O)Nc2cnc(-c3cncc(F)c3)nc2C(F)(F)F)cc1	Echinochloa crus-galli (ECHCG)	3

Please give the measured Control of weed species after pre-emergence application, ECHCG for this compound: COCCC(=O)Nc1cnc(-c2cncc(F)c2)nc1C(F)(F)F 4

Please give the measured Control of weed species after pre-emergence application, ECHCG for this compound: O=C(CCC1CCCC1)Nc1cnc(-c2cncc(F)c2)nc1C(F)(F)F 4

Please give the measured Control of weed species after pre-emergence application, ECHCG for this compound: O=C(Nc1cnc(-c2cncc(F)c2)nc1C(F)(F)F)C1CC1 4

Please give the measured Control of weed species after pre-emergence application, ECHCG for this compound: CC(C)C(=O)Nc1cnc(-c2cncnc2)nc1C(F)(F)F 4

Please give the measured Control of weed species after pre-emergence application, ECHCG for this compound: CC(C)=CC(=O)Nc1cnc(-c2cncc(F)c2)nc1C(F)(F)F 2

Please give the measured Control of weed species after pre-emergence application, ECHCG for this compound: CCC(=O)Nc1cnc(-c2cncc(F)c2)nc1C(F)(F)F 3

Please give the measured Control of weed species after pre-emergence application, ECHCG for this compound: CC(C)C(=O)Nc1cnc(-c2cncc(F)c2)nc1C(F)(F)F 4

---

System: Echinochloa crus-galli (ECHCG)
Experiment: Post-emergence herbicidal activity, glasshouse pot test
Assay type: in vivo
Design: key: 5=total damage to plant; 0=no damage to plant
Conditions: 1000 g/ha, post-emergence spray after 8 days cultivation, evaluated after 13 days, damage score 0-5
Consider the following compounds and their measured Control of weed species after post-emergence application, ECHCG readings.
Just the number.

compound	experimentalResult
CC(C)C(=O)N(C)c1cnc(-c2cncc(F)c2)nc1C(F)(F)F [Compound F20]	5
O=C(CCC1CCCC1)Nc1cnc(-c2cncnc2)nc1C(F)(F)F [Compound F17]	4
O=C(Nc1cnc(-c2cncc(F)c2)nc1C(F)(F)F)C(Cl)Cl [Compound F8]	4
Cc1ccc(C(=O)Nc2cnc(-c3cncc(F)c3)nc2C(F)(F)F)cc1 [Compound F25]	5
CC(C)C(=O)Nc1cnc(-c2cncnc2)nc1C(F)(F)F [Compound F32]	4
O=C1CCCCN1c1cnc(-c2cncc(F)c2)nc1C(F)(F)F [Compound F29]	4
O=C(Nc1cnc(-c2cncc(F)c2)nc1C(F)(F)F)c1cccs1 [Compound F9]	4
O=C(Nc1cnc(-c2cncc(F)c2)nc1C(F)(F)F)C(Cl)(Cl)Cl [Compound F5]	4

Please give the measured Control of weed species after post-emergence application, ECHCG for this compound: N#CCN(C(=O)C1CC1)c1cnc(-c2cncc(F)c2)nc1C(F)(F)F [Compound F30] 4

---

Consider the following compounds and their measured Control of weed species after pre-emergence application, AVEFA readings.
Test system: Avena fatua (AVEFA)
Assay: Pre-emergence herbicidal activity, glasshouse pot test
Assay type: in vivo
Details: 1000 g/ha, pre-emergence spray, evaluated after 13 days, damage score 0-5

compound	experimentalResult
COCCC(=O)Nc1cnc(-c2cncc(F)c2)nc1C(F)(F)F [Compound F15]	2
CC(C)C(=O)Nc1cnc(-c2cncnc2)nc1C(F)(F)F [Compound F32]	1

Please give the measured Control of weed species after pre-emergence application, AVEFA for this compound: O=C(Nc1cnc(-c2cncc(F)c2)nc1C(F)(F)F)C1CCCCC1 [Compound F27] 0

Please give the measured Control of weed species after pre-emergence application, AVEFA for this compound: Cc1nc(-c2cncnc2)ncc1N(C(=O)C(C)C)C(=O)C(C)C [Compound F2] 2

Please give the measured Control of weed species after pre-emergence application, AVEFA for this compound: CC(C)C(=O)N(C)c1cnc(-c2cncc(F)c2)nc1C(F)(F)F [Compound F20] 3

Please give the measured Control of weed species after pre-emergence application, AVEFA for this compound: COCCC(=O)Nc1cnc(-c2cncnc2)nc1C(F)(F)F [Compound F16] 1

Please give the measured Control of weed species after pre-emergence application, AVEFA for this compound: CC(=O)Nc1cnc(-c2cncnc2)nc1C(F)(F)F [Compound F31] 2

Please give the measured Control of weed species after pre-emergence application, AVEFA for this compound: CCCC(=O)Nc1cnc(-c2cncc(F)c2)nc1C(F)(F)F [Compound F33] 1

Please give the measured Control of weed species after pre-emergence application, AVEFA for this compound: Cc1nc(-c2cncnc2)ncc1NC(=O)C(C)C [Compound F1] 2

---

System: Avena fatua (AVEFA)
Assay: Pre-emergence herbicidal activity, glasshouse pot test
Format: in vivo
Settings: 1000 g/ha, pre-emergence spray, evaluated after 13 days, damage score 0-5
testReadout: Control of weed species after pre-emergence application, AVEFA

Please give the measured Control of weed species after pre-emergence application, AVEFA for this compound: CC(C)C(=O)Nc1cnc(-c2cncc(F)c2)nc1C(F)(F)F [Compound F13] 2

Please give the measured Control of weed species after pre-emergence application, AVEFA for this compound: O=C(CCC1CCCC1)Nc1cnc(-c2cncc(F)c2)nc1C(F)(F)F [Compound F19] 1

Please give the measured Control of weed species after pre-emergence application, AVEFA for this compound: O=C(Nc1cnc(-c2cncc(F)c2)nc1C(F)(F)F)c1ccccc1 [Compound F10] 1

Please give the measured Control of weed species after pre-emergence application, AVEFA for this compound: O=C(C1CC1)N(C(=O)C1CC1)c1cnc(-c2cncc(F)c2)nc1C(F)(F)F [Compound F21] 0

Please give the measured Control of weed species after pre-emergence application, AVEFA for this compound: Cc1ccc(C(=O)Nc2cnc(-c3cncc(F)c3)nc2C(F)(F)F)cc1 [Compound F25] 0

---

System: Echinochloa crus-galli (ECHCG)
Assay: Pre-emergence herbicidal activity, glasshouse pot test
Type: in vivo
Settings: 1000 g/ha, pre-emergence spray, evaluated after 13 days, damage score 0-5
Consider the following compounds and their measured Control of weed species after pre-emergence application, ECHCG readings.
Just the number.

compound	experimentalResult
O=C(Nc1cnc(-c2cncc(F)c2)nc1C(F)(F)F)C1CCC1 [Compound F26]	3
O=C1CCCCN1c1cnc(-c2cncc(F)c2)nc1C(F)(F)F [Compound F29]	2
O=C(C1CC1)N(C(=O)C1CC1)c1cnc(-c2cncc(F)c2)nc1C(F)(F)F [Compound F21]	1
CC(=O)Nc1cnc(-c2cncc(F)c2)nc1C(F)(F)F [Compound F11]	4
O=C(Nc1cnc(-c2cncc(F)c2)nc1C(F)(F)F)c1ccccc1 [Compound F10]	4

Please give the measured Control of weed species after pre-emergence application, ECHCG for this compound: O=C(COc1ccccc1)Nc1cnc(-c2cncc(F)c2)nc1C(F)(F)F [Compound F18] 3

Please give the measured Control of weed species after pre-emergence application, ECHCG for this compound: O=C(CCC1CCCC1)Nc1cnc(-c2cncnc2)nc1C(F)(F)F [Compound F17] 3

Please give the measured Control of weed species after pre-emergence application, ECHCG for this compound: O=C(Nc1cnc(-c2cncc(F)c2)nc1C(F)(F)F)C(Cl)Cl [Compound F8] 4

Please give the measured Control of weed species after pre-emergence application, ECHCG for this compound: Cc1nc(-c2cncnc2)ncc1N(C(=O)C(C)C)C(=O)C(C)C [Compound F2] 4

Please give the measured Control of weed species after pre-emergence application, ECHCG for this compound: COCC(=O)Nc1cnc(-c2cncc(F)c2)nc1C(F)(F)F [Compound F3] 3

Please give the measured Control of weed species after pre-emergence application, ECHCG for this compound: CC(C)(C)C(=O)Nc1cnc(-c2cncc(F)c2)nc1C(F)(F)F [Compound F6] 4

Please give the measured Control of weed species after pre-emergence application, ECHCG for this compound: O=C(CC(F)(F)F)Nc1cnc(-c2cncc(F)c2)nc1C(F)(F)F [Compound F23] 3

Please give the measured Control of weed species after pre-emergence application, ECHCG for this compound: CC(=O)Nc1cnc(-c2cncnc2)nc1C(F)(F)F [Compound F31] 4

Please give the measured Control of weed species after pre-emergence application, ECHCG for this compound: O=C(Nc1cnc(-c2cncc(F)c2)nc1C(F)(F)F)c1cccs1 [Compound F9] 2

Please give the measured Control of weed species after pre-emergence application, ECHCG for this compound: COCCC(=O)Nc1cnc(-c2cncnc2)nc1C(F)(F)F [Compound F16] 4

Please give the measured Control of weed species after pre-emergence application, ECHCG for this compound: CCCCC(=O)Nc1cnc(-c2cncc(F)c2)nc1C(F)(F)F [Compound F12] 3

Please give the measured Control of weed species after pre-emergence application, ECHCG for this compound: O=C(Nc1cnc(-c2cncc(F)c2)nc1C(F)(F)F)C(Cl)(Cl)Cl [Compound F5] 3

Please give the measured Control of weed species after pre-emergence application, ECHCG for this compound: O=C(Nc1cnc(-c2cncc(F)c2)nc1C(F)(F)F)C1CCCCC1 [Compound F27] 0

Please give the measured Control of weed species after pre-emergence application, ECHCG for this compound: N#CCN(C(=O)C1CC1)c1cnc(-c2cncc(F)c2)nc1C(F)(F)F [Compound F30] 3

Please give the measured Control of weed species after pre-emergence application, ECHCG for this compound: CCC(=O)N(C(=O)CC)c1cnc(-c2cncc(F)c2)nc1C(F)(F)F [Compound F7] 2

Please give the measured Control of weed species after pre-emergence application, ECHCG for this compound: Cc1nc(-c2cncnc2)ncc1NC(=O)C(C)C [Compound F1] 3
